- TEST DESCRIPTION: Solubility of Compound 1.HCl measured gravimetrically in solvents/solvent mixtures
- Type: physicochemical
- PROTOCOL CONDITIONS: organic solvent or mixture, thermodynamic from solid; TBME, 15° C., slurried 48 h, gravimetric
READOUT: solubility at 48 h (µg/mL)
Reply with just the number (in µg/mL).

query: Query solubility at 48 h for C[C@@H](NC(=O)N1C(=O)[C@H](Cc2ccnc(N)c2)[C@H]1C(=O)O)C1CCCCC1.Cl [Compound 1.HCl]
result: 400

---

- TEST DESCRIPTION: Solubility of Compound 1.HCl measured gravimetrically in solvents/solvent mixtures
- Assay type: physicochemical
- PROTOCOL CONDITIONS: thermodynamic from solid; Water, 15° C., slurried 48 h, gravimetric
READOUT: solubility at 48 h

query: Query solubility at 48 h for C[C@@H](NC(=O)N1C(=O)[C@H](Cc2ccnc(N)c2)[C@H]1C(=O)O)C1CCCCC1.Cl [Compound 1.HCl]
result: > 100 mg/mL
